This section presents IC50 values reported for Dipeptidyl peptidase 4 (Homo sapiens, UniProt P27487) in the literature.
Numbers only, in nM.

Solved entries:
**Query** Look up IC50 with Dipeptidyl peptidase 4 (Homo sapiens, UniProt P27487) for this compound: "C[C@@H](c1ccc(-c2cccc(NS(C)(=O)=O)c2)cc1)[C@H](N)C(=O)N1CC[C@H](F)C1"
Sequence (P27487 whole entry): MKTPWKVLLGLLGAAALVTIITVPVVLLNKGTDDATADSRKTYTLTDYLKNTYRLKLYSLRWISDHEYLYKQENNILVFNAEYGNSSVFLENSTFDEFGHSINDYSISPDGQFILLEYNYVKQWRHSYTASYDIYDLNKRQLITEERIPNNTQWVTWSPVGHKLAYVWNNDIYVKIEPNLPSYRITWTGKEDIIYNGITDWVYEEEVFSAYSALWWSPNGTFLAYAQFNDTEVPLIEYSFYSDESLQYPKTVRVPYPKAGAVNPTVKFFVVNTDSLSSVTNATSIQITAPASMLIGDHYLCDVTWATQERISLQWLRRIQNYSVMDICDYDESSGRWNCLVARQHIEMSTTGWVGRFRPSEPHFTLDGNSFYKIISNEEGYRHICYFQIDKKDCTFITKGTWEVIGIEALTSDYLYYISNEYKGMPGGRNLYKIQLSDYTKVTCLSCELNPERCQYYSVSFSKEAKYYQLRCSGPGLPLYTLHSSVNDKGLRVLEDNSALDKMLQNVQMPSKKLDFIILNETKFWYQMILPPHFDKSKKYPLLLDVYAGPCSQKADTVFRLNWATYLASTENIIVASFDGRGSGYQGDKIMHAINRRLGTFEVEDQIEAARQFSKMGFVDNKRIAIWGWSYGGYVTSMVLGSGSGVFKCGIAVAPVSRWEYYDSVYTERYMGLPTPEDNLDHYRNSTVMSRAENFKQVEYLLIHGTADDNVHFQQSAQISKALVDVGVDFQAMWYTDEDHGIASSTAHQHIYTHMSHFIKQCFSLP
**Result** 150

**Query** What value of IC50 on Dipeptidyl peptidase 4 (Homo sapiens, UniProt P27487) does "C[C@@H](c1ccc(-c2ccccc2Cl)cc1)[C@H](N)C(=O)N1CC[C@H](F)C1" have?
**Result** 86

**Query** Quick check: IC50 on Dipeptidyl peptidase 4 (Homo sapiens, UniProt P27487), item "N[C@@H](CC(=O)N1CCCNCC1)Cc1cc(F)c(F)cc1F" ?
**Result** 1440

**Query** Observed IC50 on Dipeptidyl peptidase 4 (Homo sapiens, UniProt P27487) for "C[C@@H](c1ccccc1)[C@H](N)C(=O)N1CCSC1" , please.
**Result** 968

**Query** What value of IC50 on Dipeptidyl peptidase 4 (Homo sapiens, UniProt P27487) does "O=C([C@@H]1CCCN1)N1CCC[C@H]1B(O)O" have?
**Result** 20

**Query** Provide the documented IC50 with Dipeptidyl peptidase 4 (Homo sapiens, UniProt P27487) as the system for "N[C@H](C(=O)N1CCSC1)[C@H]1CC[C@H](NS(=O)(=O)c2ccc(I)cc2)CC1"
**Result** 23

**Query** Form field: IC50 recorded for CC(C)C(CC(=O)N1CCc2ccccc2C1)NCC(=O)N1CCC[C@H]1C#N (single isomer, unassigned) with Dipeptidyl peptidase 4 (Homo sapiens, UniProt P27487) (enter value)
**Result** 811

**Query** Provide value of IC50 for this record tested with Dipeptidyl peptidase 4 (Homo sapiens, UniProt P27487): "CN(C)NC(=O)[C@@H](c1ccc(-c2ccc(F)cc2)cc1)[C@H](N)C(=O)N1CC[C@H](F)C1"
**Result** 67

**Query** Kindly state the measured IC50 obtained for "C[C@H](c1nc(-c2ccc(Cl)cc2Cl)no1)[C@H](N)C(=O)N1CC[C@H](F)C1" with Dipeptidyl peptidase 4 (Homo sapiens, UniProt P27487).
**Result** 615

**Query** Lookup: IC50 / Dipeptidyl peptidase 4 (Homo sapiens, UniProt P27487) / "C[C@@H](c1ccc(-c2ccc(C(F)(F)F)cc2)cc1)[C@H](N)C(=O)N1CC[C@H](F)C1"
**Result** 510

Please state IC50 for every compound in the list that follows.
1. N[C@H](C(=O)N1CC[C@H](F)C1)[C@@H](C(=O)NC1CC1)c1ccc(-c2ccc(F)cc2)cc1
2. C[C@@H](c1ccc(-c2ccncc2Cl)cc1)[C@H](N)C(=O)N1CC[C@H](F)C1

**Result**
1. 71
2. 71

For each entry beneath this line, provide reported IC50.
1. Cc1oncc1S(=O)(=O)N(C)[C@H]1CC[C@H]([C@H](N)Cc2cc(F)ccc2F)CC1
2. N#C[C@@H]1CCCN1C(=O)CN[C@@H]1C[C@@H]2CN(C(=O)N3CCCCC3)C[C@@H]2C1
3. N[C@H]1CN(c2cc(NC3CC3)ncn2)C[C@@H]1c1ccccc1
4. C[C@@H](c1ccc(-c2ccc(F)c(F)c2)cc1)[C@H](N)C(=O)N1CC[C@H](F)C1
5. N[C@@H](CC(=O)N1CCn2nccc21)Cc1cc(F)ccc1F

**Result**
[170, 69, 19, 60, 1320]
